Biological target: IN-GCN2 interaction (6xHis-IN / GST-GCN2) (UniProt P04585+Q9P2K8)
Sequence (Q9P2K8 192-1024, other chains not shown): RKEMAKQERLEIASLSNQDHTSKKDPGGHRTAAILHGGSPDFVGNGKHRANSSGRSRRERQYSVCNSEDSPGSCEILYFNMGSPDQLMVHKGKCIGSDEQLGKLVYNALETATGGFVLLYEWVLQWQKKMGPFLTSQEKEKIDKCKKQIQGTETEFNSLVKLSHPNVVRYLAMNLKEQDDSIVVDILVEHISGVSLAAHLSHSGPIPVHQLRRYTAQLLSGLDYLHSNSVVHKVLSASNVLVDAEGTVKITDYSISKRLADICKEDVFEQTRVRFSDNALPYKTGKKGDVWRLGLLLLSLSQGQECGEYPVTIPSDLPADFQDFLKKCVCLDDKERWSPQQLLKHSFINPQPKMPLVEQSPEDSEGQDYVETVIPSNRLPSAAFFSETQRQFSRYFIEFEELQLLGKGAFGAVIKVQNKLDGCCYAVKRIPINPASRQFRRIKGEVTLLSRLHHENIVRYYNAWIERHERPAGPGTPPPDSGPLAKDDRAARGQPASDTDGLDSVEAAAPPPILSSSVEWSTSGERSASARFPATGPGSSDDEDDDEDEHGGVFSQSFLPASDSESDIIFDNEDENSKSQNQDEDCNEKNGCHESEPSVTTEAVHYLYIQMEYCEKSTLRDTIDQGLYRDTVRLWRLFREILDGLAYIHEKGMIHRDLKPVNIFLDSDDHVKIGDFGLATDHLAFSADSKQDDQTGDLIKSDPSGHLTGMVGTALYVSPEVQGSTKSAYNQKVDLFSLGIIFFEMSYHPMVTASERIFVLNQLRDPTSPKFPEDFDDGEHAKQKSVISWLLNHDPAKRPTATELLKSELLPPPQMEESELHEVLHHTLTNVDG
Assay: biochemical
Assay type: binding, HIV-1 IN; human GCN2
Details: screen, single dose 100 µM, single replicate; residual AlphaLISA signal normalized to DMSO control
Exercise: state measured IN-GCN2 interaction (%) for each of the molecules provided.
Answers are plain numbers, in %.

Example cases with answers are listed next.
- Molecule: "C=C1[C@@H](C)[C@H]2[C@H](Cc3ccccc3)NC(=O)C23[C@H](OC(C)=O)/C=C/[C@@](C)(O)C[C@@H](C)C/C=C/[C@H]3[C@@H]1O (some centres unmarked)"
  Result unit: "%"
  Endpoint result: 109.95
- Molecule: "COC1=C2CC(C)CC(OC)C(O)C(C)/C=C(\\C)C(OC(N)=O)C(OC)/C=C\\C=C(/C)C(=O)NC(=C(/C=N/N3CCOCC3)C1=O)C2=O (centres unmarked)"
  Result unit: "%"
  Endpoint result: 78.82
- Molecule: "Nc1ncnc2c1ncn2C1OCC(O)C1O (centres unmarked)"
  Result unit: "%"
  Endpoint result: 127.88
- Molecule: "CO[C@@H]1[C@@H](OC(=O)c2ccc(C)[nH]2)[C@@H](O)[C@H](Oc2ccc3c(O)c(NC(=O)c4ccc(O)c(CC=C(C)C)c4)c(=O)oc3c2Cl)OC1(C)C"
  Result unit: "%"
  Endpoint result: 36.34
- Molecule: "COc1ccc(-c2cc(=O)c3ccc(O)cc3o2)cc1OC"
  Result unit: "%"
  Endpoint result: 118.02

Give IN-GCN2 interaction (%) for all molecules that follow.
1. CO[C@@H]1[C@H](O)CC[C@]2(CO2)[C@H]1[C@@]1(C)O[C@@H]1CC=C(C)C
2. C[C@H]1CO[C@H]2C3=C(C(=O)C=CC3=O)[C@@H]3OC(=O)[C@H]4CC[C@@H]5[C@H]1CC[C@@]52[C@@H]43

Result:
1. 118.70
2. 52.24

Could I get IN-GCN2 interaction (%) for every one of these entries?
1. O=C(O)/C=C/CC[C@@H]1SC[C@@H]2NC(=O)N[C@@H]21
2. O=C(O)CC1OCC=C2CN3CCC45c6ccccc6NC4C1C2CC35 (centres unmarked)
3. CCC1(O)CC(OC2CC(N(C)C)C(O)C(C)O2)c2c(O)c3c(c(O)c2C1OC1CC(N(C)C)C(O)C(C)O1)C(=O)c1cccc(O)c1C3=O (centres unmarked)
4. C[C@H]1O[C@@H](O[C@H]2[C@@H](O)C[C@H](O[C@H]3[C@@H](O)C[C@H](O[C@H]4CC[C@@]5(C)[C@H](CC[C@@H]6[C@@H]5CC[C@]5(C)[C@@H](C7=CC(=O)OC7)[C@@H](O)C[C@]65O)C4)O[C@@H]3C)O[C@@H]2C)C[C@H](O)[C@@H]1O
5. CCC1(O)CC(OC2CC(N(C)C)C(OC3CC(O)C(OC4CC(O)C(O)C(C)O4)C(C)O3)C(C)O2)c2c(cc3c(c2O)C(=O)c2c(O)ccc(O)c2C3=O)C1C(=O)OC (centres unmarked)
6. CC(O)CCC(=O)c1ccoc1 (centres unmarked)
7. COc1cc2c(cc1OC)[C@@H](Cc1ccc(O)cc1)N(C)CC2

Result:
109.13
104.59
17.07
127.68
39.6
84.65
91.61
